target: human SGLT2 (Homo sapiens (Human), UniProt P31639); assay: Inhibitory effect on human SGLT2 activity (14C-AMG uptake in CHO cells expressing hSGLT2); details: 14C-AMG transport, CHO cells expressing hSGLT2, 2 hours
Sequence (P31639 whole entry): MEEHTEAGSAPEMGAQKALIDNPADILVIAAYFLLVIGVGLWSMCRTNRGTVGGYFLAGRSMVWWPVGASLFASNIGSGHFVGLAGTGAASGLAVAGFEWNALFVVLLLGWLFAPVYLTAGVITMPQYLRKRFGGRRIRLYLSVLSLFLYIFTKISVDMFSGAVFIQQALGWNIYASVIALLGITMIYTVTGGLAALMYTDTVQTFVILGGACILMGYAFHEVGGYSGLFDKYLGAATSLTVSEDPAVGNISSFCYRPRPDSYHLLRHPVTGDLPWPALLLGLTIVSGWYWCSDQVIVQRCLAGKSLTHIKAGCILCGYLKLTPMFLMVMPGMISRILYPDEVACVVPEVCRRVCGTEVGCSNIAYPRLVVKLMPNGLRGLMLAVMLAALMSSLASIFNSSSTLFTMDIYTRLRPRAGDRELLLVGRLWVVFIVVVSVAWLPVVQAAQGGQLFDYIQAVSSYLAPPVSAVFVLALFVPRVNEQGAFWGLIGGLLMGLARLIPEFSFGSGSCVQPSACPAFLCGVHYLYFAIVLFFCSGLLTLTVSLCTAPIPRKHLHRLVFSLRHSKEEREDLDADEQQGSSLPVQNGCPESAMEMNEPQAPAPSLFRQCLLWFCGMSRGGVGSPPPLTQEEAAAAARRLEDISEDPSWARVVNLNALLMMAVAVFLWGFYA
READOUT LABEL: IC50 (nM)

Previously resolved entries follow.
MOLECULE: CCc1c([C@@H]2O[C@H](CO)[C@@H](O)[C@H](O)[C@H]2O)cc(Cc2ccc(OC)cc2)c2c1CCC2
IC50 (nM): 2.73

MOLECULE: CCCc1c([C@@H]2O[C@H](CO)[C@@H](O)[C@H](O)[C@H]2O)cc(Cc2ccc(C)cc2)c2c1CCC2
IC50 (nM): 1.83

A. CCc1ccc(Cc2cc([C@@H]3O[C@H](CO)C(O)[C@H](O)C3O)c(C)c3c2CCC3)cc1 (stereo in doubt)
B. CCCCc1c([C@@H]2O[C@H](CO)[C@@H](O)[C@H](O)[C@H]2O)cc(Cc2ccc(OC)cc2)c2c1CCC2
Sorting ascending by IC50, which comes first: A or B ? Indicate which entry you chose by stating its label.
A
(A: 2.8 nM, B: 5.86 nM)

1. CCc1c([C@@H]2O[C@H](CO)[C@@H](O)[C@H](O)[C@H]2O)cc(Cc2ccc(C)cc2)c2c1CCC2
2. Cc1ccc(Cc2cc([C@@H]3O[C@H](CO)[C@@H](O)[C@H](O)[C@H]3O)c(CC(C)C)c3c2CCC3)cc1
Looking only at measured IC50, which entry is lower, 1 or 2 ? // output: label of the selected item
1
